test: A qHTS for Small Molecule Inhibitors of Shiga Toxin; conditions: Vero cells, Shiga toxin protein synthesis inhibition reporter; at 38.7 µM; also: 0% is about no effect
The whole screen tested about 290,000 compounds, of which about 27,000 (9.3%) were called active. Rule as the data show it: active = inhibition mostly above about 28% (no sharp cut-off); inactive = mostly below about 43%. The entries come from a sample that favours actives as a whole.
Classes used: active, inactive

1) O=C(CCNS(=O)(=O)c1cccs1)N1CCN(c2ccc(F)cc2)CC1    inactive
2) COc1ccccc1-c1nnc(NC(=O)c2ccc3ncsc3c2)o1    active
3) O=C1N=C(N2CCc3ccccc3C2)S/C1=C\c1ccc(O)cc1    inactive
4) CC(Cc1cccs1)NC(=O)NC1CCCCC1 (stereo not given)    inactive
5) Cc1nn(C)c(C)c1C(C)NC(=O)c1ccc(OC2CCN(Cc3ccccn3)CC2)cc1 (stereo not given)    inactive
6) c1csc(-c2nnc(COc3ncnc4sccc34)o2)c1    inactive
7) O=C(Nc1cc(-c2nc3ncccc3o2)ccc1Cl)c1ccco1    inactive
8) COc1ccccc1-c1nnc(SCC(=O)Nc2ccccc2)o1    inactive
9) CC(C)c1ccc(C2C(C(=O)c3ccco3)=C(O)C(=O)N2CC2CCCO2)cc1 (stereo not given)    inactive
10) Cc1ccsc1/C=C1\SC(N2CCOCC2)=NC1=O    active
11) CC1CCN(C2=NC(=O)/C(=C/c3cn[nH]c3-c3ccccc3)S2)CC1    inactive
12) CCc1ccc(CNC(=O)C2CCN(c3nnc(C)c4c(C)n(-c5ccc(C)cc5)nc34)CC2)cc1    inactive
13) O=[N+]([O-])c1cc(C(F)(F)F)ccc1NCCc1ccncc1    inactive
14) C[C@H]1CCC(=O)N([C@H](CSc2ccccc2)Cc2ccccc2)CC1    inactive
15) CC(C)Nc1nnc(SCC(=O)/C=C2\N(C)c3ccccc3C2(C)C)s1    inactive
16) CC(C)c1ccc(NC(=S)NC2CC3C=CC2C3)cc1 (stereo not given)    active
17) COC(=O)c1sc(N2CCN(Cc3ccccc3)CC2)nc1N    inactive
18) Cn1c(=NC(=O)c2ccco2)sc2cccc(F)c21    active
19) CC1CN(C(=S)Nc2cccc(F)c2)CC(C)O1 (stereo not given)    inactive
20) CC(Cc1cccs1)NC(=O)c1cccc(Cl)c1 (stereo not given)    active
21) Cc1cc(NC(=O)Nc2c[nH]c(=O)[nH]c2=O)ccc1Br    inactive
22) CCN1/C(=C/c2ccc3ccc(C)cc3[n+]2CC)Sc2ccccc21    inactive
23) COc1ccc(CNC(=O)CN(Cc2ccccc2Cl)C(=O)c2csnn2)cc1    inactive
24) Cc1ccc(N2CCN(C3=NC(=O)/C(=C\c4cccs4)S3)CC2)cc1    inactive
25) O=C(CN(Cc1ccc(Br)cc1)S(=O)(=O)c1ccccc1)NCc1ccncc1    inactive
26) CC(=C/c1ccccc1)/C=N/NC(=O)c1cc(C)oc1C    inactive
27) COc1ccc(C2Nc3ccccc3C(=O)N2Cc2ccccc2)cc1Cn1nnc2ccccc21 (stereo not given)    inactive
28) Cc1cc(NC(=O)CCC(=O)N(CC(=O)NC2CCCC2)c2ccc(F)cc2)no1    inactive
29) Cc1ccc(NS(=O)(=O)c2c(C)[nH]c(C)c2C(=O)N2CCCCC2)c(C)c1    inactive
30) CC(Cc1cccs1)NCc1ccc(Cl)cc1 (stereo not given)    inactive
31) Cn1c(=NC(=O)C2CC2)sc2cc(F)cc(F)c21    inactive
32) CCOc1ccc(C(C)=O)cc1COC(=O)c1cnc(Cl)c(Cl)c1    inactive
33) CCc1ccc(/C=C2\SC(N3CCOCC3)=NC2=O)cc1    inactive
34) CCC1=Nc2cc(C(=O)NCCCN3CCOCC3)ccc2Sc2ccc(Br)cc21    inactive
35) c1csc(-c2nnc(COc3ccc4c(c3)OCO4)o2)c1    active
36) COc1ccc(N2C(=O)c3ccccc3NC2c2ccc(OC)c(CN3CCOCC3)c2)cc1 (stereo not given)    active
37) O=C(Cc1cc(=O)[nH][nH]1)N/N=C/c1ccccc1[N+](=O)[O-]    inactive
38) COc1ccc(-c2onc3ccc(C(C)=O)cc23)cc1    inactive
39) O=C1N=C(N2CCOCC2)S/C1=C\C=C/c1ccccc1    active
40) CN(C(=O)CSc1nnnn1-c1ccccc1)C1CCCCC1    inactive
41) CCOC(=O)N1CCN(S(=O)(=O)c2ccc(-n3cnnn3)cc2)CC1    inactive
42) COc1ccc(C2Nc3ccccc3C(=O)N2c2ccc(Cl)cc2)cc1Cn1cc([N+](=O)[O-])cn1 (stereo not given)    active
43) O=C(O)CCC(=O)N(Cc1ccccc1)Cc1ccccc1    inactive
44) COc1ccc([N+](=O)[O-])cc1C1NN=C(c2cccc3ccccc23)S1 (stereo not given)    inactive
45) CCOC(=O)CSc1nc(N2CCOCC2)c2c(c1C#N)CC(C(C)C)OC2 (stereo not given)    inactive

====

experiment: A qHTS for Small Molecule Inhibitors of Shiga Toxin; conditions: Vero cells, Shiga toxin protein synthesis inhibition reporter; at 38.7 µM, stronger effect = higher value; also: 0% is about no effect
In all, about 290,000 compounds went through this assay and about 27,000 (9.3%) were called active. This is one part of a sample in which actives are shown more often than they occur.
REPORTED_ENDPOINT: inhibition (%)

1. O=C(NCc1cccnc1)C12CC3CC(CC(C3)C1)C2    11.5
2. CCCCCNC(=O)C1c2ccccc2Oc2ccccc21    -12.3
3. Cc1cccc2[nH]c(CN(C)C(=O)C3CCC(=O)N(CCc4ccccc4)C3)nc12 (stereo unspecified)    17.9
4. Cc1cc(C(F)F)n2nc(C(=O)Nc3ccc(S(=O)(=O)NC45CC6CC(CC(C6)C4)C5)cc3)nc2n1    -15.3
5. Cc1ccc2c(C)c(C(=O)N(C)CCC3CCCCO3)oc2c1C (stereo unspecified)    55.6
6. CC(C)CC(=O)N1CCN(Cc2cccc(Cl)c2)CC1    -12.6
7. S=C(Nc1ccc(Br)cc1)NC1CCN(Cc2ccccc2)CC1    -5.49
8. CN=C1C=C/C(=N/N=c2\ccn(O)cc2C)C=C1C    20.1
9. Cc1cc(C(=O)N/N=C\C(Br)=C\c2ccccc2)c(C)o1    54.6
10. CC(C)c1cc(C(=O)N/N=C/C(Br)=C/c2ccccc2)n[nH]1    47.5
11. CC(C)(O)C#Cc1ccc(CN2CCC(CO)(CCc3ccccc3)CC2)cc1    -5.12

====

test: A qHTS for Small Molecule Inhibitors of Shiga Toxin; details: Vero cells, Shiga toxin protein synthesis inhibition reporter; at 38.7 µM, stronger effect = higher value; also: 0% is about no effect
Among all 290,000 compounds or so, about 27,000 (9.3%) were called active. This excerpt belongs to a sample that is enriched for actives.
REPORTED_ENDPOINT: inhibition (%)

1. O=C(CCn1c(=S)[nH]c2cc3c(cc2c1=O)OCO3)NCc1ccc(Cl)cc1    1.66
2. Clc1ccc(-c2cc(-c3ccccn3)on2)c(Cl)c1    48.1
3. c1ccc(CSCCc2ccncc2)cc1    -5.65
4. Cc1cc(C)c(SCCc2ccncc2)c(C)c1    -4.14
5. CC1COc2ccccc2N1C(=O)c1ccc(F)cc1 (configuration not stated)    -4.1
6. CC(=O)c1ccc(OCC(O)CN2CCN(S(=O)(=O)c3cccc(Br)c3)CC2)cc1 (configuration not stated)    -10
7. c1ccc(-c2nccc(-c3ccc(-n4cnc5ccccc54)cc3)n2)nc1    -13.3
8. OC(c1nnc(-c2ccccc2)o1)c1cccs1 (configuration not stated)    111
9. O=C(CSc1ncccn1)NC(=O)NCc1ccccc1    34.2
10. Cc1nc(C)c(C(=O)Nc2ccc(C)c(F)c2)o1    0.239
11. CC(C)(C)c1ccc(SCCc2ccncc2)cc1    69.1
12. CCCN(CCC)c1ccc(C(O)c2nnc(-c3ccccc3)o2)cc1 (configuration not stated)    29.6

====

assay: A qHTS for Small Molecule Inhibitors of Shiga Toxin; settings: Vero cells, Shiga toxin protein synthesis inhibition reporter; at 38.7 µM, stronger effect = higher value; also: 0% is about no effect
In all, about 290,000 compounds went through this assay and about 27,000 (9.3%) were called active. This excerpt belongs to a sample that is enriched for actives.
inhibition values for the compounds below.
REPORTED_ENDPOINT: inhibition

1. COc1ccc(OC)c(CCNC(=O)CCn2ccc3cc(S(=O)(=O)N4CCCC4)ccc32)c1    1.48% (inactive)
2. Cc1ccc(C(=O)Cn2cc([N+](=O)[O-])nc2C)cc1    -7.99% (inactive)
3. O=C(NCc1ccccn1)C1CCN(S(=O)(=O)c2ccc(Br)cc2)CC1    -33.7% (inactive)
4. Cc1ccc(-c2cn3cc([N+](=O)[O-])ccc3n2)cc1    190% (active)
5. Cc1ccnc(N2C(=O)c3ccc([N+](=O)[O-])cc3C2=O)c1    2.61% (inactive)

====

experiment: A qHTS for Small Molecule Inhibitors of Shiga Toxin; conditions: Vero cells, Shiga toxin protein synthesis inhibition reporter; at 38.7 µM, stronger effect = higher value; also: 0% is about no effect
The campaign covered roughly 290,000 compounds. About 27,000 (9.3%) were called active. The sample as a whole holds a higher share of actives than the screen did.
Quick rule: inhibition of at least 10% means condition met, below that means condition not met.

1. Cc1cc(CN(C)C(=O)c2cc(COc3ccc(C)c(C)c3)on2)n[nH]1    condition met
2. Cc1ccc(CNC(=O)Cc2cn(C)c3ccccc23)cc1    condition met
3. Cc1ccc(SC(=O)COc2ccc(C)c(C)c2)cc1    condition not met
4. CCOC(=O)c1ccc2[nH]c3c(c2c1)CCCC3NC=O (stereo unspecified)    condition met
5. COC1=C/C(=C/c2c(N)n3nc(CC(=O)N4CCOCC4)sc3nc2=O)C=CC1=O    condition not met
6. CCC(NC(=O)C1CCCC1)c1ccc(C)cc1 (stereo unspecified)    condition not met
7. CN(CCOc1ccccc1)C(=O)c1cc(COc2c(F)cccc2F)on1    condition met
8. CN(Cc1cnccn1)C(=O)c1cc(COc2cccc(C(F)(F)F)c2)on1    condition met
9. CN(Cc1cccnc1)C(=O)c1cc(COc2ccc3ncccc3c2)on1    condition met
10. CC(C)c1ccc2oc(=O)cc(CN3CCN(Cc4ccccc4)CC3)c2c1    condition not met
11. Cn1cc(C(=O)NCc2ccccc2F)cn1    condition met
